I'd be grateful if you could share measured apparent Kd for these entries.
test system: MS2 coat protein; test: apparent Kd, MS2 coat protein; higher = weaker binding; RNA-MaP array; details: designed as: OFF switch for flavin mononucleotide; no ligand
Number in nM, nothing else.

Let me know recorded apparent Kd for UAAGCACAUGAGGAUCACCCAUGUAAGGAUAUCCGAUCAUGCAAUCCGGAGAUCACAAGGAGAAGGUACAUGCA , thanks.
29.6

Let me know recorded apparent Kd for AAUAUUAACGUCAGGAUAUGCCAUUCCCGUUGGCGGCAGAAGGGACAUGAGGAUCACCCAUGUGAAAACGUCAC , thanks.
16.9

Let me know recorded apparent Kd for CUUAAGUGAGGAUAUCGUGGGACUACAUUAAUGAGAAUCAGCGAGAAGGCACAUGAGGAUCACCCAUGUGGUAA , thanks.
18.6

Let me know recorded apparent Kd for AUGGAACAUGAGGAUCACCCAUGUUAGGAUAUCGGCGAAGGGAGUUUUAUACUCACUGCGAGAAGGAACGUGAC , thanks.
25.2

====

I'd be grateful if you could share measured apparent Kd for these entries.
test system: MS2 coat protein; assay: apparent Kd, MS2 coat protein; higher = weaker binding; RNA-MaP array; details: designed as: OFF switch for flavin mononucleotide; no ligand
In your response, the unit should come after the numeric value.

Let me know recorded apparent Kd for UAAUUAACGUAGAAGGAAUCCCAUCCGUUGCAAUUAGGAUAUACGUUCCCUCGAACAUGAGGAUCACCCAUGUGGCAACCAUAU , thanks.
14.7 nM

Let me know recorded apparent Kd for UCUGUGAUUCAAGGAUAUAAGUCGAGUGCUUGCUUAGAAGGUGACGAACAUGAGGAUCACCCAUGUGCUUUAUUCUUAUGCAUC , thanks.
29.2 nM

Let me know recorded apparent Kd for AGGUCGAAACUAGGAUAUCUUCACUAUGUCAGAAGAGAAGGAGUAGAGCAUGACAGUGAUAGUACAUGAGGAUCACCCAUGUUA , thanks.
18.8 nM

Let me know recorded apparent Kd for GAACAUGAGGAUCACCCAUGUGCUAUUGGGAAUCGCGCUACAUAGGAUAUAGAGGCGACUGUACUCUAGAAGGAUGCUAGUUUC , thanks.
38.3 nM

Let me know recorded apparent Kd for CCGACACAGAAGAAGGCUUUUGGUCUUAGCAGAAGAGGAUAUUCCUGUGUUCCGCGUACAUGAGGAUCACCCAUGUGUGAGCAC , thanks.
6.59 nM

Let me know recorded apparent Kd for UAGAAACUCGUAAGGAUAUCCGAAGAGAAAAUGAGGGAGAAGGUACAUGAGGAUCACCCAUGUAUGAAAUGGAC , thanks.
7.64 nM

Let me know recorded apparent Kd for CAUUACCAUGUUAGGAUAUCCUGCGGAAUUGCCCUGGAGAAGGAACAUGAGGAUCACCCAUGUGCACAAACAAC , thanks.
17.6 nM

====

tested on: MS2 coat protein; experiment: apparent Kd, MS2 coat protein; higher = weaker binding; RNA-MaP array; FMN 200 µM where present; conditions: designed as: ON switch for flavin mononucleotide; no ligand
measurement label: apparent Kd (nM)
Number in nM, nothing else.

Let me know recorded apparent Kd for AUAUGAUAGAUAGGAUAUACUAUGGUUGAAGAAGUAGAAGGAUCAAUAGGGAAAUGUACAUGAGGAUCACCCAUGUUAUGGAUU , thanks.
29.7

Let me know recorded apparent Kd for UACAUUAACAUGAGGAUCACCCAUGUUGGCCAGUCUCACACCAGAAGGCACGUAGAGCACAACAGUGAGGAUAUGGGUGACAUA , thanks.
218

Let me know recorded apparent Kd for AUACAUGAGGAUCACCCAUGUAAUUAAUUAAUUAAUAAGAUCUAGGAUAUCAGCUCGUUUAGAGCUGAGAAGGAGAUCACAUGU , thanks.
23.4

Let me know recorded apparent Kd for UUGUACAUUCGAGGAUAUCGGAGAGAGAUCAUUCGAGAAGGCGAUUCAUGAUGUAUUAUCCUGGACAUGAGGAUCACCCAUGUA , thanks.
111

Let me know recorded apparent Kd for UGCGUACAAGCAAACAUGAGGAUCACCCAUGUGGUCUCAUGCGAGGAUAUCGGGAAGGAGGAUUCCGAGAAGGUGCGGUGAGCC , thanks.
116

Let me know recorded apparent Kd for GCAGCGCCUGACAUGAGGAUCACCCAUGUUCCAUUGUUGAGUCAGGAUAUAGUCUAGAAACUAGACUAGAAGGGAUAUGCUGCU , thanks.
70.2

Let me know recorded apparent Kd for CCACUCGAGCAGAAGGCAAUGAGGGUUAUACAUUGAGGAUAUGCUACGUAUGUGGUACAUGAGGAUCACCCAUGUAGCCUAUCU , thanks.
389

====

tested on: MS2 coat protein; experiment: apparent Kd, MS2 coat protein; higher = weaker binding; RNA-MaP array; details: designed as: OFF switch for theophylline; no ligand
Outcome label depends on apparent Kd relative to 20 nM: at/above gives Yes, below gives No.

Check this sequence for apparent Kd at or above 20 nM: AGUGCUACGUGUAAUCAAAGAGAACCAGAUACCAGAUUAGCAUACAUCCCUUGGCAGCUGCAUACAUGAGGAUCACCCAUGUCAG
Yes

Check this sequence for apparent Kd at or above 20 nM: CUGACGAGCUUUUUGUCAGGUUGUGUAGAUACCAGUUCUCUGGUGAACCCUUGGCAGCUAACAACAUGAGGAUCACCCAUGUGAU
Yes

Check this sequence for apparent Kd at or above 20 nM: ACCGAGGCAAUGGAUACCAGUGCGCCACAAUCGUGCUUCAACAUGAGGAUCACCCAUGUGCACCCUUGGCAGCCAACGGGCUCAU
Yes

Check this sequence for apparent Kd at or above 20 nM: UUAUAUUCUCAAUCGCCAUGUGCUUUAGAUACCAGUCUGAUAAAUGACCCUUGGCAGCUAGAGACAUGAGGAUCACCCAUGUCUU
No

Check this sequence for apparent Kd at or above 20 nM: UUGUACGAAACUGAUACCAGCCAGCAAUGCCACCAAGAGCACAUGAGGAUCACCCAUGUUGGCCCUUGGCAGCAGGACAAUAAGC
No

Check this sequence for apparent Kd at or above 20 nM: AAAGAUUCCUGAACGCCGCAUACCGAUGAUACCAGCCAACGGAAAGGCCCUUGGCAGCAUUAAACAUGAGGAUCACCCAUGUCUA
No

====

system: MS2 coat protein; assay: apparent Kd, MS2 coat protein; higher = weaker binding; RNA-MaP array; tryptophan 2.4 mM where present; settings: ligand present: tryptophan; designed as: ON switch for tryptophan
I'd be grateful if you could share measured apparent Kd for these entries.
Number in nM, nothing else.

Let me know recorded apparent Kd for UUAUAUACUACGGCCGCCACUGAACAUGAGGAUCACCCAUGUAAUGUUCAGAUUUUUUUUUUUUACAGGACCGGGUAGAAUUAAA , thanks.
133

Let me know recorded apparent Kd for UAGUCCGCGACGGCCGCCACUCGCUGAUGCACAUGUGUCCGGGACAUGAGGAUCACCCAUGUUUCGAGGACCGGGUCGAUCCUAA , thanks.
57

Let me know recorded apparent Kd for CUACAUUUGUAGAAACCGGUCAACAAUAAUCGAGGACCGGUACGGCCGCCACUCGAUGUAAAAUAAACAUGAGGAUCACCCAUGU , thanks.
19.3

Let me know recorded apparent Kd for GCAUCCUAGUCGGCCGCCACUGCAACAUGAGGAUCACCCAUGUCAGGCCUCAUGUGUCCUGGUAGCAGGACCGGGACUAGGAUGC , thanks.
29.2

====

system: MS2 coat protein; assay: apparent Kd, MS2 coat protein; higher = weaker binding; RNA-MaP array; tryptophan 2.4 mM where present; settings: ligand present: tryptophan; designed as: ON switch for tryptophan
measurement label: apparent Kd (nM)
Number in nM, nothing else.

Let me know recorded apparent Kd for UGCAUUAUACAUGGAUCACCCAUGUAGACACGAGGACCGGUACGGCCGCCACUCGGAAGAGGAAACAUGAGGAUCACCCAUGUGA , thanks.
78.2

Let me know recorded apparent Kd for AAUUAUCAGUCGGCCGCCACUGACACAUGAGGAUCACCCAUGUAAUAUGGGUAAAAUUAACUGAACAGGACCGGGACAAAUGCUA , thanks.
649

Let me know recorded apparent Kd for CCAUCUUCAUCGGCCGCCACUGAACCAAGGAGACAUGAGGAUCACCCAUGUAUGGGAAACCAUCAUAGGACCGGGAUGAAGGUGG , thanks.
30.9

Let me know recorded apparent Kd for CGAGUAAGUUCAAUCGAAUAACGGUUUUCGCGAGGACCGGUACGGCCGCCACUCGUGUGAUAUCACACAUGAGGAUCACCCAUGU , thanks.
47.4

Let me know recorded apparent Kd for AUACAUGAGGAUCACCCAUGUGAUGGCCGGCGAGGACCGGUACGGCCGCCACUCGUGAUCCGUCCUGAAAGCAAAGCUCCCAGCA , thanks.
122

Let me know recorded apparent Kd for UAUGAGCGCACGGCCGCCACUGUCUUCAUCUGUUUGUCUACAUGAGGAUCACCCAUGUUGGUUUACAGGACCGGGUGCAACUAUG , thanks.
22.4

Let me know recorded apparent Kd for GCAUCCUAGUCGGCCGCCACUGCAACAUGAGGAUCACCCAUGUCUGCAUCUUCAUGAUGCAGUAGCAGGACCGGGACUAGGAUGC , thanks.
20.2

Attribution: the EternaBench riboswitch data
